Values from paper PMC12243159

target: hCA II (Homo sapiens, UniProt P00918); experiment: stopped-flow CO2 hydration assay, hCA II; format: biochemical
pKi: −log10 of the molar value.
ENDPOINT LABEL: pKi

COCCOc1cc2ncnc(Nc3cccc(-c4cn(CCOCCOCCOCCNC(=O)Nc5ccc(S(N)(=O)=O)cc5)nn4)c3)c2cc1OCCOC; 6.02

a. COCCOc1cc2ncnc(Nc3cccc(-c4cn(CCOCCOCCOCCOCCOCCNC(=S)NCCc5ccc(S(N)(=O)=O)cc5)nn4)c3)c2cc1OCCOC [compound 14d]
b. COCCOc1cc2ncnc(Nc3cccc(-c4cn(CCOCCOCCOCCOCCOCCNC(=O)Nc5ccc6oc(=O)ccc6c5)nn4)c3)c2cc1OCCOC
c. COCCOc1cc2ncnc(Nc3cccc(-c4cn(CCOCCOCCOCCOCCOCCC(=O)NCc5ccc(S(N)(=O)=O)cc5)nn4)c3)c2cc1OCCOC [compound 10a]
d. COCCOc1cc2ncnc(Nc3cccc(-c4cn(CCOCCOCCOCCNC(=S)Nc5ccc(S(N)(=O)=O)cc5)nn4)c3)c2cc1OCCOC
e. COCCOc1cc2ncnc(Nc3cccc(-c4cn(CCOCCOCCOCCNC(=S)NCc5ccc(S(N)(=O)=O)cc5)nn4)c3)c2cc1OCCOC
Prompt line: Put the items in sequence by pKi, from largest down. Hello, could you send the labels back in the order asked? Thank you.
Response line: d, c, e, b, a
(d: 6.87, c: 6.60, e: 5.94, b: 4.94, a: 4.49)

====

// endpoint pKi / system UniProtKB O43570
pKi: −log10 of the molar value.
ENDPOINT LABEL: pKi

Known pKi results, listed for orientation:
COCCOc1cc2ncnc(Nc3cccc(-c4cn(CCOCCOCCOCCOCCOCCNC(=O)Nc5ccc(S(N)(=O)=O)cc5)nn4)c3)c2cc1OCCOC [compound 12b]; 7.12
COCCOc1cc2ncnc(Nc3cccc(-c4cn(CCOCCOCCOCCNC(=O)Nc5ccc(S(N)(=O)=O)cc5)nn4)c3)c2cc1OCCOC; 7.24

A. COCCOc1cc2ncnc(Nc3cccc(-c4cn(CCOCCOCCOCCOCCOCCNC(=O)Nc5ccc6oc(=O)ccc6c5)nn4)c3)c2cc1OCCOC
B. COCCOc1cc2ncnc(Nc3cccc(-c4cn(CCOCCOCCOCCOCCOCCC(=O)NCc5ccc(S(N)(=O)=O)cc5)nn4)c3)c2cc1OCCOC [compound 10a]
C. COCCOc1cc2ncnc(Nc3cccc(-c4cn(CCOCCOCCOCCNC(=S)Nc5cccc(S(N)(=O)=O)c5)nn4)c3)c2cc1OCCOC
D. COCCOc1cc2ncnc(Nc3cccc(-c4cn(CCOCCOCCOCCOCCOCCNC(=S)Nc5ccc(S(N)(=O)=O)cc5)nn4)c3)c2cc1OCCOC [compound 14b]
Prompt line: With regard to pKi, arrange the entries in ascending order, please. Hello, could you send the labels back in the order asked? Thank you.
Response line: A, B, D, C

====

target: hCA IX (Homo sapiens); experiment: stopped-flow CO2 hydration assay, hCA IX; type: biochemical; conditions: ratio of KI hCA I to KI hCA IX
ENDPOINT LABEL: SI I/IX

COCCOc1cc2ncnc(Nc3cccc(-c4cn(CCOCCOCCOCCOCCOCCNC(=S)NCCc5ccc(S(N)(=O)=O)cc5)nn4)c3)c2cc1OCCOC [compound 14d]; 0.51
COCCOc1cc2ncnc(Nc3cccc(-c4cn(CCOCCOCCOCCOCCOCCNC(=S)Nc5ccc(S(N)(=O)=O)cc5)nn4)c3)c2cc1OCCOC [compound 14b]; 8.79
Cc1cn([C@H]2C[C@H](N=[N+]=[N-])[C@@H](CO)O2)c(=O)[nH]c1=O [AZT, azidothymidine, reference compound]; 9.73

P. COCCOc1cc2ncnc(Nc3cccc(-c4cn(CCOCCOCCOCCNC(=S)NCc5ccc(S(N)(=O)=O)cc5)nn4)c3)c2cc1OCCOC
Q. COCCOc1cc2ncnc(Nc3cccc(-c4cn(CCOCCOCCOCCNC(=O)Nc5ccc(S(N)(=O)=O)cc5)nn4)c3)c2cc1OCCOC
Prompt line: Returns the identifier with the smallest measured SI I/IX among P and Q . Response format: the label of the selected entry.
Response line: Q

====

// endpoint Ki / system hCA IX (Homo sapiens, UniProt Q16790)
ENDPOINT LABEL: Ki (µM)

Known Ki results, listed for orientation:
COCCOc1cc2ncnc(Nc3cccc(-c4cn(CCOCCOCCOCCOCCOCCC(=O)NCCOc5ccc6oc(=O)ccc6c5)nn4)c3)c2cc1OCCOC [compound 11]; 4.68
COCCOc1cc2ncnc(Nc3cccc(-c4cn(CCOCCOCCOCCOCCOCCNC(=O)Nc5ccc(S(N)(=O)=O)cc5)nn4)c3)c2cc1OCCOC [compound 12b]; 5.62
COCCOc1cc2ncnc(Nc3cccc(-c4cn(CCOCCOCCOCCNC(=S)NCc5ccc(S(N)(=O)=O)cc5)nn4)c3)c2cc1OCCOC [compound 8c]; 0.026

1. COCCOc1cc2ncnc(Nc3cccc(-c4cn(CCOCCOCCOCCNC(=O)Nc5cccc(S(N)(=O)=O)c5)nn4)c3)c2cc1OCCOC [compound 7a]
2. COCCOc1cc2ncnc(Nc3cccc(-c4cn(CCOCCOCCOCCNC(=S)NCCc5ccc(S(N)(=O)=O)cc5)nn4)c3)c2cc1OCCOC [compound 8d]
3. COCCOc1cc2ncnc(Nc3cccc(-c4cn(CCOCCOCCOCCOCCOCCNC(=S)NCCc5ccc(S(N)(=O)=O)cc5)nn4)c3)c2cc1OCCOC [compound 14d]
4. COCCOc1cc2ncnc(Nc3cccc(-c4cn(CCOCCOCCOCCOCCOCCC(=O)NCc5ccc(S(N)(=O)=O)cc5)nn4)c3)c2cc1OCCOC [compound 10a]
Prompt line: Put the items in sequence by Ki, from largest down. Hello, could you send the labels back in the order asked? Thank you.
Response line: 4, 3, 1, 2

A. Cc1cn([C@H]2C[C@H](N=[N+]=[N-])[C@@H](CO)O2)c(=O)[nH]c1=O [AZT, azidothymidine, reference compound]
B. COCCOc1cc2ncnc(Nc3cccc(-c4cn(CCOCCOCCOCCOCCOCCNC(=O)Nc5ccc6oc(=O)ccc6c5)nn4)c3)c2cc1OCCOC [compound 13]
Prompt line: Two entries are listed, A and B . Which one carries the higher Ki? Response format: the label of the selected entry.
Response line: B
(B: 0.242 µM, A: 0.0257 µM)

1. COCCOc1cc2ncnc(Nc3cccc(-c4cn(CCOCCOCCOCCNC(=S)Nc5ccc(S(N)(=O)=O)c(C)c5Br)nn4)c3)c2cc1OCCOC [compound 9]
2. COCCOc1cc2ncnc(Nc3cccc(-c4cn(CCOCCOCCOCCOCCOCCNC(=S)Nc5ccc(S(N)(=O)=O)cc5)nn4)c3)c2cc1OCCOC [compound 14b]
3. COCCOc1cc2ncnc(Nc3cccc(-c4cn(CCOCCOCCOCCOCCOCCNC(=O)NCc5ccc(S(N)(=O)=O)cc5)nn4)c3)c2cc1OCCOC [compound 12c]
4. COCCOc1cc2ncnc(Nc3cccc(-c4cn(CCOCCOCCOCCNC(=S)Nc5ccc(S(N)(=O)=O)cc5)nn4)c3)c2cc1OCCOC [compound 8b]
Prompt line: Put the items in sequence by Ki, from largest down. Hello, could you send the labels back in the order asked? Thank you.
Response line: 2, 1, 3, 4

====

molecular target: hCA XII (Homo sapiens); assay: stopped-flow CO2 hydration assay, hCA XII; assay type: biochemical; conditions: ratio of KI hCA II to KI hCA XII
Sequence (O43570 25-354): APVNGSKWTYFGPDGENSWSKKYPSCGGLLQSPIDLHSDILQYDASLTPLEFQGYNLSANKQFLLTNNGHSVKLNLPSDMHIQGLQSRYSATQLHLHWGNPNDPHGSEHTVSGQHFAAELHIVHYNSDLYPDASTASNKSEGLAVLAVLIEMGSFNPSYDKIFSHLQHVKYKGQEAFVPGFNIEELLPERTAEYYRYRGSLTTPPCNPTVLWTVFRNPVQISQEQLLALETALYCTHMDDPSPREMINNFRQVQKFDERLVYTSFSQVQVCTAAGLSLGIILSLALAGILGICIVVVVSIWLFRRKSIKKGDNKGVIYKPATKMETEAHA
ENDPOINT LABEL: SI II/XII

Known SI II/XII results, listed for orientation:
COCCOc1cc2ncnc(Nc3cccc(-c4cn(CCOCCOCCOCCOCCOCCNC(=O)Nc5ccc6oc(=O)ccc6c5)nn4)c3)c2cc1OCCOC; 1.41
COCCOc1cc2ncnc(Nc3cccc(-c4cn(CCOCCOCCOCCNC(=O)Nc5ccc(S(N)(=O)=O)cc5)nn4)c3)c2cc1OCCOC; 16.6
COCCOc1cc2ncnc(Nc3cccc(-c4cn(CCOCCOCCOCCOCCOCCNC(=S)Nc5ccc(S(N)(=O)=O)cc5)nn4)c3)c2cc1OCCOC [compound 14b]; 6.38
COCCOc1cc2ncnc(Nc3cccc(-c4cn(CCOCCOCCOCCOCCOCCNC(=O)Nc5ccc(S(N)(=O)=O)cc5)nn4)c3)c2cc1OCCOC [compound 12b]; 1.21
COCCOc1cc2ncnc(Nc3cccc(-c4cn(CCOCCOCCOCCOCCOCCNC(=O)Nc5cccc(S(N)(=O)=O)c5)nn4)c3)c2cc1OCCOC [compound 12a]; 0.16
COCCOc1cc2ncnc(Nc3cccc(-c4cn(CCOCCOCCOCCNC(=S)NCCc5ccc(S(N)(=O)=O)cc5)nn4)c3)c2cc1OCCOC; 16.3

1. COCCOc1cc2ncnc(Nc3cccc(-c4cn(CCOCCOCCOCCOCCOCCNC(=S)NCCc5ccc(S(N)(=O)=O)cc5)nn4)c3)c2cc1OCCOC [compound 14d]
2. COCCOc1cc2ncnc(Nc3cccc(-c4cn(CCOCCOCCOCCOCCOCCNC(=S)NCc5ccc(S(N)(=O)=O)cc5)nn4)c3)c2cc1OCCOC [compound 14c]
Prompt line: Two entries are listed, 1 and 2 . Which one carries the higher SI II/XII? Response format: the label of the selected entry.
Response line: 1

I. COCCOc1cc2ncnc(Nc3cccc(-c4cn(CCOCCOCCOCCOCCOCCNC(=O)NCc5ccc(S(N)(=O)=O)cc5)nn4)c3)c2cc1OCCOC [compound 12c]
II. COCCOc1cc2ncnc(Nc3cccc(-c4cn(CCOCCOCCOCCNC(=S)Nc5ccc(S(N)(=O)=O)c(C)c5Br)nn4)c3)c2cc1OCCOC
III. COCCOc1cc2ncnc(Nc3cccc(-c4cn(CCOCCOCCOCCNC(=O)Nc5cccc(S(N)(=O)=O)c5)nn4)c3)c2cc1OCCOC
Prompt line: With regard to SI II/XII, arrange the entries in ascending order, please. Hello, could you send the labels back in the order asked? Thank you.
Response line: I, II, III
(I: 0.0008, II: 7.61, III: 12.3)

A. COCCOc1cc2ncnc(Nc3cccc(-c4cn(CCOCCOCCOCCNC(=S)Nc5ccc(S(N)(=O)=O)cc5)nn4)c3)c2cc1OCCOC
B. COCCOc1cc2ncnc(Nc3cccc(-c4cn(CCOCCOCCOCCNC(=S)Nc5cccc(S(N)(=O)=O)c5)nn4)c3)c2cc1OCCOC
C. COCCOc1cc2ncnc(Nc3cccc(-c4cn(CCOCCOCCOCCNC(=S)NCc5ccc(S(N)(=O)=O)cc5)nn4)c3)c2cc1OCCOC
D. COCCOc1cc2ncnc(Nc3cccc(-c4cn(CCOCCOCCOCCOCCOCCC(=O)NCc5ccc(S(N)(=O)=O)cc5)nn4)c3)c2cc1OCCOC [compound 10a]
Prompt line: With regard to SI II/XII, arrange the entries in ascending order, please. Hello, could you send the labels back in the order asked? Thank you.
Response line: D, C, A, B
(D: 0.08, C: 16.5, A: 25.4, B: 44.0)
